target_of_assay: Voltage-gated potassium channel subunit beta-2 (Rattus norvegicus) (UniProt P62483)
Sequence (P62483 whole entry, looked up): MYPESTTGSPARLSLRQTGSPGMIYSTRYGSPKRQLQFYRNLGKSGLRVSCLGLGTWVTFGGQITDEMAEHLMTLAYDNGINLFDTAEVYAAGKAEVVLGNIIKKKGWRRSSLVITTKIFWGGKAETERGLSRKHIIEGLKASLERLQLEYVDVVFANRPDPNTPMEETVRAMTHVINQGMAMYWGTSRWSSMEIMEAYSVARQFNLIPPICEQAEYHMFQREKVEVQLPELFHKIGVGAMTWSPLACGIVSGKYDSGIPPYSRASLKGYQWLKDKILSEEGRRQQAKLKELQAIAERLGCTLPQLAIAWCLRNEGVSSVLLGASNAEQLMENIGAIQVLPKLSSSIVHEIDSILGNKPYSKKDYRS
assay_remarks: enhancers of rat Kvbeta2 NADPH turnover – biochemical, NADPH fluorescence, primary screen (AID 623);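 note: fluorescence intensity change per second fitted from 20 to 320 s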
condition_summary: Recombinant KvBeta, NADPH fluorescence decrease slope, 10 min; at 10 µM; stronger effect = lower value
The following molecules are listed with their measured NADPH fluorescence slope values.
reported_endpoint: NADPH fluorescence slope

{"columns": ["molecule", "reported_endpoint", "reported"],
 "data": [
  ["c1ccc2c(c1)CC(N1CCCCC1)c1ccccc1N2 (stereo unspecified)", "NADPH fluorescence slope", -0.000142],
  ["CCC(C)(C)NC(=O)C(c1ccco1)N(C(=O)Cn1nnc2ccccc21)c1ccc2c(c1)OCO2 (stereo unspecified)", "NADPH fluorescence slope", "-2e-05"],
  ["Cc1nc2c(C(=O)O)cnn2c(C)c1Cc1ccccc1F", "NADPH fluorescence slope", "4.6e-06"],
  ["CCCCCOC(=O)C1=C(C)N(C)C(=O)NC1c1cc(Br)c(O)c(OC)c1 (stereo unspecified)", "NADPH fluorescence slope", "5.7e-06"],
  ["COc1cccc(OC)c1OCCCSc1nc(C)cc(=O)[nH]1", "NADPH fluorescence slope", "-2.1e-05"],
  ["CCOC(=O)N1CCC(N2C(=O)c3ccccc3C2Nc2cc(Cl)c(OC)cc2OC)CC1 (stereo unspecified)", "NADPH fluorescence slope", "-3.8e-05"],
  ["CCOC(=O)c1ccc(NS(=O)(=O)c2cccc3nsnc23)cc1", "NADPH fluorescence slope", "4.3e-05"],
  ["CCc1nn(CC(=O)N2CCN(Cc3ccc4c(c3)OCO4)CC2)c(=O)c2cc3occc3n12", "NADPH fluorescence slope", "-1.6e-05"],
  ["CCN(CCNC(=O)C1CCN(S(C)(=O)=O)CC1)c1ccccc1", "NADPH fluorescence slope", "-3e-05"],
  ["Cc1cnc(SCCc2ccncc2)nc1C", "NADPH fluorescence slope", "-1.1e-05"],
  ["O=C(Nc1ccccc1-c1ccccc1)NC1CCN(CC(=O)N2CCOCC2)CC1", "NADPH fluorescence slope", "-7.3e-05"]
]}

* * *

assay_remarks: TLR3 IRF3 reporter activation blockers – cell-based, poly I:C stimulus, luciferase, 10K MLSCN set, primary screen (AID 602277)
condition_summary: HEK293-TLR3 RL24 IRF3 luciferase reporter, at 10 µM, stronger effect = higher value
Activity calls are given as the source filed them.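 The calls were made as follows: active = inhibition of the reporter signal at or above 50%; inactive = inhibition below 50%.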
Reported values of inhibition for individual entries

{"columns": ["smiles_record", "inhibition"],
 "data": [
  ["COCC(=O)N(C)c1nnc(-c2ccccn2)s1", "-17.6% (inactive)"],
  ["COC(=O)c1cccc(NC(=O)CSc2nnc(COc3ccccc3)n2C)c1", "14% (inactive)"],
  ["CN(c1ccccc1C(=O)N1CCN(c2cccc(Cl)c2)CC1)S(C)(=O)=O", "8.69% (inactive)"],
  ["O=C(CCn1c(=O)oc2ccccc21)N1CCN(c2ccccc2Cl)CC1", "19.6% (inactive)"],
  ["CCOC(=O)c1ccccc1NC(=O)c1ccc2c(=O)n3c(nc2c1)CCCCC3", "32.9% (inactive)"],
  ["COc1ccc(C(=O)c2ccccc2)c(O)c1", "-8.45% (inactive)"]
]}

* * *

assay_remarks: reduction of polyQ htt aggregates in cells – imaging, exon1htt(103Q)mCFP cells, high-content imaging, primary screen (AID 483);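 note: compound exposure lasted 3 days before fixation; percent of the per-plate median nuclei count of sample wells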
condition_summary: exon1htt(103Q)mCFP cell line, aggregate imaging, at 2 µM; measured here: cell count, toxicity

{"columns": ["compound", "unit_name", "nuclei count"],
 "data": [
  ["Cc1nc(N)c(C#N)c(-c2cccnc2)c1C", "%", 85],
  ["Cc1ccc(N2CCN(CCc3nc4cc(NS(C)(=O)=O)ccc4n3C)CC2)cc1", "%", 90.6],
  ["Cc1nn(-c2ccccc2)c(Cl)c1C(=O)NCC(=O)O", "%", 100],
  ["CCOC(=O)C1=C(C)Nc2nnnn2C1c1ccc(OC)c(Br)c1 (stereo unspecified)", "%", 94.6],
  ["CCN(C(=O)CCc1nc(-c2ccccc2F)no1)c1cc(OC)ccc1OC", "%", 110],
  ["CC1CCc2nn(CC(=O)NCCCN3CCOCC3)cc2C1 (stereo unspecified)", "%", 125]
]}

Source: PubChem BioAssay
